tested on: U251 CNS; assay: NCI tumour cell line growth inhibition, 48 h
Please respond with reported TGI for every item in the list.

Example entries and their recorded answers appear below.
-- ask Suppose we examine the compound `Cc1c(C)c(CC(=O)N2CC2)c(C)c(C)c1CC(=O)N1CC1` ; what TGI value has been reported?
-- reply > 67.3 µM

-- ask Suppose we examine the compound `CCOC(=O)c1ccc(Nc2nc3ccc(C(F)(F)F)cc3nc2C(=O)OCC)cc1` ; what TGI value has been reported?
-- reply > 100 µM

Now consider the entry below.
-- ask Record request: TGI value, item `c1ccc(-c2nc(N3CCCNCC3)c3nc(-c4ccccc4)oc3n2)cc1`
-- reply 3.31 µM
